Biological target: T1, vitamin D binding protein
T1 sequence (P02774 17-474, species assumed, looked up): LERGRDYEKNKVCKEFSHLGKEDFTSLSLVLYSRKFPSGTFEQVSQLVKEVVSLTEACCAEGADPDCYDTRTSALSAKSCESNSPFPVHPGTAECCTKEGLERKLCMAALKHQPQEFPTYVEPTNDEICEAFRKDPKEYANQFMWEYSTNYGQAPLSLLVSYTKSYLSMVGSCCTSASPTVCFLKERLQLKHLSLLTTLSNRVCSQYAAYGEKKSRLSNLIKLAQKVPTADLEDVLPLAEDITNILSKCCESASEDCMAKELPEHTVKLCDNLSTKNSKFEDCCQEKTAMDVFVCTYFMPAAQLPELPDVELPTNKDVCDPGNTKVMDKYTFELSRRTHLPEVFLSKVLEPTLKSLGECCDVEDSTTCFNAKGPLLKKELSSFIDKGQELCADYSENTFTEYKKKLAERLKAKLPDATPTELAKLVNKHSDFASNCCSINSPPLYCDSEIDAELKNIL
Assay: SPR (Biacore 2000), DBP immobilized on CM5, 1:1 model
Side chains are listed from the residue outwards. Ends that are not written are not given here. * marks the point of attachment. coumarin = 7-methoxycoumarin-3-carboxylic acid, COc1ccc2cc(C(=O)*)c(=O)oc2c1; 25OHVD3 = 25-hydroxyvitamin D3, linked at its carbon 11; Dansyl = CN(C)c1cccc2c(S(=O)(=O)*)cccc12; 8C = 8-carbon spacer; Ahx = NCCCCCC(=O)O; VD3 = vitamin D3
ATTRIBUTE_MEASURED: Kd (nM)

Guide cases for Kd, answers given:
NAADLEARIRHLRERLAARGPK([Ahx-VD3])DAK(Dansyl)QLAEQLARAFERFARAG (designed binder, not fully specified (N-terminus, C-terminus)) [4-C25L22-6C-VD3 (dansyl)]: 1300
NAADLEARIRHLRERLAARGPRDAAQLAEQLARK([Ahx-VD3])FEK(Dansyl)FARAG (designed binder, not fully specified (N-terminus, C-terminus)) [4-C37L34-6C-VD3 (dansyl)]: 900
Ac-NAADLEAK([8C-25OHVD3])IRHLAEK(Dansyl)LAARGPVDAAQLAEQLARRFEAFARAG (designed binder) [3-C15L8-8C-25OHVD3 (dansyl)]: 1100
Ac-NAADLEAK([Ahx-25OHVD3])IRHLREK(coumarin)LAARGPRDAAQLAEQLARRFERFARAG (designed binder) [4-C15L8-6C-25OHVD3 (coumarin)]: 50
Ac-NEADLEAK([8C-25OHVD3])IRHLAEK(Dansyl)LEARGPEDAEQLAEQLARAFEAFARAG (designed binder) [1-C15L8-8C-25OHVD3 (dansyl)]: 290
NAADLEARIRHLRERLAARGPK([Ahx-25OHVD3])DAK(Dansyl)QLAEQLARAFERFARAG (designed binder, not fully specified (N-terminus, C-terminus)) [4-C25L22-6C-25OHVD3 (dansyl)]: 750
Ac-NAADLEARIK(Dansyl)HLAERLK([8C-25OHVD3])ARGPVDAAQLAEQLARAFEAFARAG (designed binder) [3-C10L17-8C-25OHVD3 (dansyl)]: 1200
Ac-NAADLEAKIRHLREK(Dansyl)LAARGPRDAAQLAEQLARRFERFARAG (designed binder, not fully specified (residue 8)) [4-C15L8-6C-VD3 (dansyl)]: 1800

a: Ac-NAADLEAK([8C-25OHVD3])IRHLREK(Dansyl)LAARGPRDAAQLAEQLARRFERFARAG (designed binder, not fully specified (C-terminus)) [4-C15L8-8C-25OHVD3 (dansyl)]
b: Ac-NAADLEAK([Ahx-25OHVD3])IRHLAEK(Dansyl)LAARGPVDAAQLAEQLARRFEAFARAG (designed binder) [3-C15L8-6C-25OHVD3 (dansyl)]
c: NAADLEARIRHLRERLAARGPRDAAQLAEQLARK([Ahx-25OHVD3])FEK(Dansyl)FARAG (designed binder, not fully specified (N-terminus, C-terminus)) [4-C37L34-6C-25OHVD3 (dansyl)]
d: Ac-NAADLEARIK(Dansyl)HLRERLKARGPRDAAQLAEQLARAFERFARAG (designed binder, not fully specified (residue 17)) [4-C10L17-6C-VD3 (dansyl)]
Request: Arrange the 4 binders from largest to smallest Kd. Submit the labels in the order that the ranking request calls for.
Response: b, d, c, a
(b: 1300 nM, d: 890 nM, c: 190 nM, a: 110 nM)
